measurement-protocol: growth inhibitors of H69AR lung tumor, primary screen, human, duplicate replicates (AID 580);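 note: 100% = mean luminescence of untreated wells and 0% = no signal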
assay-context: H69AR lung tumor cells viability, ATP luminescence, 72 h; at 10 µM; active compounds read low
Please note: viability exactly at 90% is -1. Only values below 90% get 1.

State whether 90% exceeds viability recorded for `CC(C)n1nnnc1SCC(=O)Nc1ccccc1N1CCOCC1` .
-1

viability under 90%? Item: `CN1CCN(C(=O)C2(NC(=O)Nc3cccc(F)c3)CCCCC2)CC1`
-1

Decide: viability of `O=C(Oc1cc2oc(=O)c3c(c2cc1Cl)CCCC3)c1ccco1` strictly below 90%?
1

Regarding `CCOC(=O)c1ccc(N(CC(=O)NC2CCCC2)C(=O)CNC(=O)c2ccco2)cc1` , kindly confirm whether its viability is beneath 90%.
-1

Would you kindly verify if viability of `O=C(Nc1ccccc1)N(CCCN1CCOCC1)Cc1cc2cc3c(cc2[nH]c1=O)OCCO3` is strictly less than 90%?
1

Is 90% strictly greater than the molecule's reported viability? molecule: `COc1cc2c(cc1OC)C(/C(C#N)=N\O)=NC(C)(C)C2`
-1

Below 90% on viability? Entry `COc1ccc(-c2nc(C(N)=O)c3[nH]c(=O)n(-c4cccc(Cl)c4)c3n2)cc1OC`
1

----------
measurement-protocol: reversal of MRP1-mediated doxorubicin resistance, pilot screen, H69AR cells, doxorubicin co-treatment (AID 601)
assay-context: H69AR cells + 2 uM doxorubicin, CellTiter-Glo, 72 h; at 10 µM; active compounds read high
measured-property: differential viability (reversal) (%)
Only the number, expressed in %, is required.

Recall and state the measured differential viability (reversal) for `CC(C)NC(=O)c1ccccc1NC(=O)c1ccccc1N(C)S(C)(=O)=O` .
-4.12

State its differential viability (reversal): `Cc1nc(-c2ccccc2)sc1C(N)=O`
-12.1

Answer with the recorded differential viability (reversal) for the molecule listed here: Cc1[nH]c2ccc(F)cc2c(=O)c1SC(F)(F)C(F)C(F)(F)F (configuration not stated)
-14.3

Please give the documented differential viability (reversal) of COC(=O)Cc1[nH]nc2c1C(C1C=CCCC1)C(C#N)=C(N)O2 (configuration not stated)
7.65

Give a short answer stating reported differential viability (reversal) for `Cc1cc(C(=O)COC(=O)CCc2nc3ccccc3s2)c(C)n1C` .
-5.69

Indicate its recorded differential viability (reversal); the molecule in question is `CCOC(=O)C1CCN(C(C)=C2C(=O)c3ccccc3C2=O)CC1`
10.4

Specify measured differential viability (reversal) for COc1cc(C)nc(N2CCCC(C(=O)Nc3cccc(Cl)c3Cl)C2)n1 (configuration not stated) .
-1.86

Annotate the molecule CC(C)COC(=O)C1C2C=CC3(CN(C(C)c4ccc(Br)cc4)C(=O)C13)O2 (configuration not stated) with its measured differential viability (reversal).
11.3

Supply differential viability (reversal) value. Item: `CCn1c(SCC(=O)c2ccc(C)cc2)nnc1-c1ccoc1C`
8.75

For the molecule Cc1ccc(S(=O)(=O)N2CCN(C(=O)N3CCOCC3)C2C)cc1 (configuration not stated) , give its reported differential viability (reversal).
-4.24

Give a short answer stating reported differential viability (reversal) for `C=CCn1c(=S)[nH]c2nc3c(cc2c1=O)COC(C)(C)C3` .
5.84

Look up differential viability (reversal) of CC(NC(=O)c1cn(C)c2ccc(S(=O)(=O)N3CCCC3)cc2c1=O)c1ccc2c(c1)OCCO2 (configuration not stated) and report it.
33.8

Return reported differential viability (reversal). Input molecule: `COc1ccc(CCNS(=O)(=O)c2ccc3c(c2)CCN3C(=O)CCC(=O)O)cc1OC`
4.3

Fill in reported differential viability (reversal) for this entry: `Cc1cc(/N=C/N(C)C)on1`
12

Look up differential viability (reversal) of `CCOC(=O)c1nnc2ccnn2c1N` and report it.
1.61

Recall and state the measured differential viability (reversal) for `CC(C)OC(=O)CSc1nnnn1-c1ccc2c(c1)OCCO2` .
6.42

Indicate its recorded differential viability (reversal); the molecule in question is CSc1ccccc1C(=O)NC1CC2CCC1C2 (configuration not stated)
7.59

For the molecule `COc1ccc2cc(C#N)c(N3CCN(Cc4nnnn4CCC(C)C)CC3)nc2c1` , give its measured differential viability (reversal) value.
8.18

# return recorded differential viability (reversal) for entry `CCC(=O)N(Cc1ccco1)c1nc(-c2cc(OC)ccc2OC)cs1`
-0.87

Respond only with differential viability (reversal) recorded for CCCNC(=O)NC1C(NC(=O)NCCC)N(C)C(=O)N1C (configuration not stated)
14.2

Consider the molecule `O=C(c1ccccc1)N1CCN(Cc2ccccc2Br)CC1` . State its measured differential viability (reversal).
2.89

Consider the molecule `Cc1cnc(C(=O)NCCc2ccc(S(=O)(=O)NC(=O)NC3CCCCC3)cc2)cn1` and give its recorded differential viability (reversal).
-16.6

Find the measured differential viability (reversal) of `N#Cc1c(SCC(=O)N2CCOCC2)nsc1SCC(=O)N1CCOCC1` and report it.
11.5

Please report the measured differential viability (reversal) for Cc1[nH]nc2c1C1(C(=O)N(Cc3ccc(Cl)cc3)c3ccccc31)C(C#N)=C(N)O2 (configuration not stated)
-39.8

Tell me measured differential viability (reversal) for `COC(=O)c1[nH]c2ccccc2c1NS(=O)(=O)c1ccc(OC)cc1OC` please.
-15.4

Specify measured differential viability (reversal) for `CCOC(=O)c1ccc2[nH]c3c(c2c1)CCCCC3=O` .
8.96

Hello, please tell me recorded differential viability (reversal) for this one: Cc1ccc(C(C(=O)NC2CCCCC2)N(C(=O)c2csnn2)C2CCCC2)o1 (configuration not stated)
1.01

Please look at this molecule and report its differential viability (reversal): `CCc1nnc(NC(=O)CSc2nnc(Cc3ccccc3)n2-c2ccc(OC)cc2)s1`
-6.38

For the molecule CC1CCCN(C(=O)CN2CCN(C(=O)c3ccco3)CC2)C1 (configuration not stated) , report differential viability (reversal).
11.7

Specify reported differential viability (reversal) for the molecule shown: CCOc1cccc(C(=O)N(Cc2ccco2)C2CCS(=O)(=O)C2)c1 (configuration not stated)
8.11

Please look at this molecule and report its differential viability (reversal): `CC(=O)Nc1nc(=S)ss1`
-8.28

Tell me differential viability (reversal) reported for `COc1ccc(CNS(=O)(=O)c2ccc3oc(C(=O)O)c(C)c3c2)cc1`
0.665

Return reported differential viability (reversal). Input molecule: `CCOC(=O)c1cc(-c2ccccc2)sc1N`
3.5

Using the record for `Cc1ccc(Cn2ccc(NC(=O)c3cc(-c4cccs4)on3)n2)cc1` , state its measured differential viability (reversal).
0.115

Quick one: give measured differential viability (reversal) for COc1ccccc1NC(=O)CC(NCc1ccccc1)C(=O)O (configuration not stated)
-2.06

Give reported differential viability (reversal) value for Cn1c(=O)cc(SCC(=O)NCC2CCCO2)c2ccc(Cl)cc21 (configuration not stated)
-4

Specify reported differential viability (reversal) for the molecule shown: `C=COCCNC(=O)Nc1ccc(Cl)c(Cl)c1`
-3.01

Check the records and state differential viability (reversal) for `O=C(NCc1ccccn1)c1cc(-n2cnnc2)ccc1Cl`
-1.2

Return differential viability (reversal) for the following molecule: `Cc1cc(C)c(NC2=NCC(=O)N2C2CCCCC2)c(C)c1`
-5.14

Find the measured differential viability (reversal) of CC1Cc2ccccc2N1C(=O)CSc1nc2ccccc2n1CC(=O)N1CCOCC1 (configuration not stated) and report it.
7

Fill in differential viability (reversal) for record CN1CC=C2C(C#N)=C(N)C(C#N)(C#N)[C@H](c3cccc(Cl)c3)C2C1 (some centres not stated)
32.6

Could you please provide reported differential viability (reversal) for COc1cccc(Nc2nnc(SCC(=O)N3CC(C)OC(C)C3)s2)c1 (configuration not stated) ? Thanks!
2.69

Report measured differential viability (reversal); entry is `COC(=O)c1cc(Br)c(=O)n(CCc2ccc(F)cc2)c1`
8.46

# return recorded differential viability (reversal) for input `CCCCOC(=O)Nc1nccs1`
1.28

Determine its reported differential viability (reversal): `COc1ccc(NS(=O)(=O)c2ccc(N)cc2)nn1`
8.44

Give me measured differential viability (reversal), please, for this molecule: `CCc1nc2sc3ccccc3c(=O)c2c(=O)n1Cc1ccco1`
2.49

Please report the measured differential viability (reversal) for CCC1CCCCN1C(=O)CSc1nnc(-c2ccco2)o1 (configuration not stated)
3.32

Where do the numbers come from? From PubChem BioAssay.
